Values compiled from patent US20190127381A1.

// reported inhibition at 1 µM for each item listed
Target: purified recombinant human PI3K enzyme γ (Homo sapiens, UniProt P48736)
Construct: purchased Invitrogen, USA
Sequence (P48736 whole entry): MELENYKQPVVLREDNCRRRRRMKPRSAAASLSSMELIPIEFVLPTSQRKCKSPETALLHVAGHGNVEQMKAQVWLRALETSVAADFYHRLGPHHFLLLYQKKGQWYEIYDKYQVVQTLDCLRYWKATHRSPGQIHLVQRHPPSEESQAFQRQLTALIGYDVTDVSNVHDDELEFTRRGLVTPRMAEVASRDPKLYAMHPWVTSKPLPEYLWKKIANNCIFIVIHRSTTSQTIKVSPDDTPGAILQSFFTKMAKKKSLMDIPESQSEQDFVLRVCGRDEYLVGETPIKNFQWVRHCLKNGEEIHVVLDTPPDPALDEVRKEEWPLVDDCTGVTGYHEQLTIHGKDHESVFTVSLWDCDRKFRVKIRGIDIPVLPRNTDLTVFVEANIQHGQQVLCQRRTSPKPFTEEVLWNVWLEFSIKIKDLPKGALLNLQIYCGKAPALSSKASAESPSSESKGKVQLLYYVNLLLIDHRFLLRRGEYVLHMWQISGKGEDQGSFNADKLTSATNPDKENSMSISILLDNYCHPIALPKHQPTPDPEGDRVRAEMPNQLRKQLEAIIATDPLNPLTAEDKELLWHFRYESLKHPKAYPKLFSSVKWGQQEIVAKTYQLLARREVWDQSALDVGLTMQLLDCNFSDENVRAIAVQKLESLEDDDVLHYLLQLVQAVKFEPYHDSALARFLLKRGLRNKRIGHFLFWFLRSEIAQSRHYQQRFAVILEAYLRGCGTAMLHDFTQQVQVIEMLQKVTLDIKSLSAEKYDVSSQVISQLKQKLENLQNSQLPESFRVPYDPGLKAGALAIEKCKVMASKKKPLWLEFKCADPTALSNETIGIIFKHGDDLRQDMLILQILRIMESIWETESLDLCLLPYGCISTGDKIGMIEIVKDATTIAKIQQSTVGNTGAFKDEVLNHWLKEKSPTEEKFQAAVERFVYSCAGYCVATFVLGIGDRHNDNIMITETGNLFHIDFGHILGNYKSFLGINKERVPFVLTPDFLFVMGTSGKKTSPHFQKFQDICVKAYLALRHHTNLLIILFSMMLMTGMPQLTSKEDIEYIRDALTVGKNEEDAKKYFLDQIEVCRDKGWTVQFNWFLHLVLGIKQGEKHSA
Assay: Inhibition of PI3-Kinase enzymatic activity (HTRF enzyme assay), γ
Type: biochemical
Conditions: 1 μM compound; PI3K γ 100 ng/well; PIP2 10 μM; ATP 50 μM; read-out: Percentage inhibition of PI3K activity, γ

Problem: Return inhibition at 1 µM for the following compound: `Cc1cccc2nc(Cn3nc(-c4ccc(O)c5c4CC(C)(C)O5)c4c(N)ncnc43)n(-n3c(C)ccc3C)c(=O)c12`
Solution: 80 to 100%

Problem: Return inhibition at 1 µM for the following compound: `CC1(C)Cc2c(-c3nn(Cc4nc5cccc(C#CCO)c5c(=O)n4-n4cccc4)c4ncnc(N)c34)ccc(O)c2O1`
Solution: 80 to 100%

Problem: Return inhibition at 1 µM for the following compound: `Cn1cccc1-c1cccc2nc(Cn3nc(-c4ccc(O)c5c4CC(C)(C)O5)c4c(N)ncnc43)n(-n3cccc3)c(=O)c12`
Solution: 80 to 100%

* * *

// reported inhibition at 1 µM for each item listed
Target: purified recombinant human PI3K enzyme γ (Homo sapiens, UniProt P48736)
Construct: purchased Invitrogen, USA
Experiment: Inhibition of PI3-Kinase enzymatic activity (HTRF enzyme assay), γ
Format: biochemical
Settings: 1 μM compound; PI3K γ 100 ng/well; PIP2 10 μM; ATP 50 μM; read-out: Percentage inhibition of PI3K activity, γ

Below are worked cases with known answers.
CC1(C)Cc2c(-c3nn(Cc4nc5cccc(C#CCN6CCOCC6)c5c(=O)n4C4(c5ccsc5)CC4)c4ncnc(N)c34)ccc(O)c2O1	80 to 100%
CC1(C)Cc2c(-c3nn(Cc4nc5cccc(C#CCO)c5c(=O)n4C4(c5ccccc5)CC4)c4ncnc(N)c34)ccc(O)c2O1	80 to 100%

Now for another entry.
Problem: Return inhibition at 1 µM for the following molecule: `CCCn1cc(-c2cccc3nc(Cn4nc(-c5ccc(O)c6c5CC(C)(C)O6)c5c(N)ncnc54)n(-n4c(C)ccc4C)c(=O)c23)cn1`
Solution: 80 to 100%
